- System under test: T1, human IL-33 (R&D Systems, #3625-IL-010/CF) (human, UniProt O95760 112-270)
- T1 construct: Commercial recombinant protein; also called hIL-33; interleukin-33
- T1 sequence (looked up): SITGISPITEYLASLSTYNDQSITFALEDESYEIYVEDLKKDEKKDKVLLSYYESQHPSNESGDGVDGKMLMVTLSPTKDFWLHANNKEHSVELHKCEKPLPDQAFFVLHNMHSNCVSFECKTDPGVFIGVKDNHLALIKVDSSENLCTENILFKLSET
- Method summary: SPR 25C, pH6.0 chase, mAb captured
- Experimental: Equilibrium dissociation constants (KD values) for IL-33 binding to purified anti-IL-33 monoclonal antibodies were determined using a real-time surface plasmon resonance biosensor using a Biacore 4000 instrument. […] Association of either hIL-33 or MfIL-33-6His to the captured monoclonal antibody was monitored for 4 minutes and their dissociation in ABS-ET running buffer was monitored for 10 minutes. […]

Binder	Unit text	koff
H4H9671P (antibody, human IgG4, V domains shown, Human IgG4 Fc (H4H)) VH: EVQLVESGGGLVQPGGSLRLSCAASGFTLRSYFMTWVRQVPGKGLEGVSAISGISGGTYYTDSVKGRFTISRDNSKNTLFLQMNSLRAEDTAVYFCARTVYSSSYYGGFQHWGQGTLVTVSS VL: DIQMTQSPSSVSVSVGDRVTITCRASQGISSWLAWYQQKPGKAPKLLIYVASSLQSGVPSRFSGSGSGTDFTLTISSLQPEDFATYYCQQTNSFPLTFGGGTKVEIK	s⁻¹	0.00162
H4H9633P (antibody, human IgG4, V domains shown, Human IgG4 Fc (H4H)) VH: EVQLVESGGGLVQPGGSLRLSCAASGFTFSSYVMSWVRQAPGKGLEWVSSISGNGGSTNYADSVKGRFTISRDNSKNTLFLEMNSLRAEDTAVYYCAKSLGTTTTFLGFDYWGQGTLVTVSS VL: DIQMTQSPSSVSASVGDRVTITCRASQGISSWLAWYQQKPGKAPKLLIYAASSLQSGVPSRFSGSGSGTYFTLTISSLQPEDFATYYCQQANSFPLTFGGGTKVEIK	s⁻¹	0.00081
H4H9670P (antibody, V domains shown, Human IgG4 Fc (H4H)) VH: EVQLVESGGGLVQPGGSLRLSCAASGFTLSSYAMSWVRQAPGKGLEWVSAISGSGGSTYYADSVKGRFTISRDNSKNSLYLQLNSLRAEDTAVYYCAKTLYTTSWYGGFQHWGQGTLVTVSS VL: DIQMTQSPSSVSASIGDRVTITCRASQGISSWLAWYQQKPGKVPKLLIYAASSLQSGFPSRFSGSGSGTDFTLTISSLQPEDFATYYCQQTHSFPWTVGQGTKVEIK	s⁻¹	0.000825
H1M9568N (antibody, mouse IgG1, V domains shown, Human variable domains, mouse IgG1 Fc (H1M)) VH: QVLLVQSGAEVKKPGATVKVSCKASGSTFTGYYMHWVRQAPGQGLEWMGWINPNNGGTNYAQKFQGRVTMTRDTSISTAYMELSRLRSDDTAVYYCARELRYNWKSWGQGTLVTVSS VL: EIVLTQSPGTLSLSPGERVTLSCRASQSVGRPYLAWYQQIPGQAPRLLIYGASSRATDIPDRFSGNGSGTDFTLTISRLEPEDFAVYYCQQYDNSPYTFGQGTRLEIK	s⁻¹	0.000178
H4H9667P (antibody, human IgG4, V domains shown, Human IgG4 Fc (H4H)) VH: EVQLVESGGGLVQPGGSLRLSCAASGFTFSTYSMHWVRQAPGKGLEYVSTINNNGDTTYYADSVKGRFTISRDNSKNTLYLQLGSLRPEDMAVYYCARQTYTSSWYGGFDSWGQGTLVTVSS VL: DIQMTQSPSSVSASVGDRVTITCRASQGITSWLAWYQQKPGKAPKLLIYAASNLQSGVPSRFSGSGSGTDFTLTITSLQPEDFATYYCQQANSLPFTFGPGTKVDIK	s⁻¹	0.000566
